// endpoint IC50 / system Sphingosine kinase 1 (Homo sapiens, UniProt Q9NYA1)
Metric: IC50 (µM)

[A] N[C@@H](CO)[C@H](O)/C=C/CCCCCCc1ccc(I)cc1
[B] N[C@@H](CO)[C@H](O)/C=C/CCCCCCCCCCc1ccc(I)cc1
Exercise: compare A and B ; which one has the greater IC50? Answer by quoting the chosen item's label.
A
(A: 3.96 µM, B: 2.19 µM)
